The measured values listed here are drawn from patent EP4703388A1.

Each item that follows carries a reported koff.
# Target System: T1, human TF ECD-His (hTF-his) (human, UniProt P13726 33-251)
# T1 construct: also called bio-hTF-his; human TF-His protein
# Assay Comment: SPR Biacore T200, antibody on Protein A chip, TF-His as analyte, 1:1 model
Use s⁻¹ as the unit, but write only the number.

The cases that follow already have their koff on record.
hu67-7 (antibody, human IgG1, kappa, V domains shown) VH: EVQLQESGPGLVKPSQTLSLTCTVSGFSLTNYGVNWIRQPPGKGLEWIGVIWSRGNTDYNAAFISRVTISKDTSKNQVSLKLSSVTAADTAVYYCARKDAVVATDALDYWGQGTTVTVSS VL: DIVMTQSPKSLAVSLGERATINCKASQDVSTAVAWYQQKPGQSPKLLIYSTSYRYTGVPDRFSGSGSGTDFTFTISSLQAEDVAVYYCQQHYSTPYTFGGGTKVEIKR : 0.000584
hu67-2 (antibody, human IgG1, kappa, V domains shown) VH: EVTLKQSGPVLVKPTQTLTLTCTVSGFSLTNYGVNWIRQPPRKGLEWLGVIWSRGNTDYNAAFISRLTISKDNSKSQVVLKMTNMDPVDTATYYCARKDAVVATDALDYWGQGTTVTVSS VL: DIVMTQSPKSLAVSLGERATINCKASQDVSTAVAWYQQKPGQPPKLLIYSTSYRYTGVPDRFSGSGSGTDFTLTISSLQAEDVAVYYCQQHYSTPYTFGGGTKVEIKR : 0.000673

Kindly consider the entry below.
Entry chimeric antibody CH67 (antibody, human IgG1, kappa, V domains shown, Murine 67# variable regions + human constant regions) VH: QVQLKQSGPGLVQPSQSLSITCIVSGFSLTNYGVNWVRQSPRKGLEWLGVIWSRGNTDYNAAFISRLIISKDNSKSQVFLKMNRLQADDTAIYYCARKDAVVATDALDYWGQGTSVTVSS VL: DIVMTQSHKFMSTSLGDRVSITCKASQDVSTAVAWYQQKPGQSPKLLIYSTSYRYTGVPDRFTGSGSGTDFTFTISSVQAEDLAVYYCQQHYSTPYTFGGGTKLEIKR — recorded koff = 0.000969
